Observed AC50 for Cytochrome P450 2D6 (Homo sapiens, UniProt P10635), reported per entry below.

Worked cases, answers included:
Ask: Request: AC50, test system Cytochrome P450 2D6 (Homo sapiens, UniProt P10635), entry COc1ccc(S(=O)(=O)N/N=C(/C)c2cccc(NC(=O)c3ccccc3Cl)c2)cc1
Result: 28.2 µM (inconclusive)

Ask: Request: AC50, test system Cytochrome P450 2D6 (Homo sapiens, UniProt P10635), entry Cc1cccc(NC(=O)CSc2nc(O)c3c(C)cc(C)nc3n2)c1
Result: 15.8 µM (inconclusive)

Ask: Request: AC50, test system Cytochrome P450 2D6 (Homo sapiens, UniProt P10635), entry COC(=O)C1(Cc2ccccc2)C=C2C(=C(C)C(=O)C2C)CN1 (stereo not given)
Result: 15.8 µM (inconclusive)

Ask: Request: AC50, test system Cytochrome P450 2D6 (Homo sapiens, UniProt P10635), entry O=C(CCc1ccc(O)cc1)c1c(O)cc(O)cc1O
Result: 39.8 µM (inconclusive)

***
Ask: Request: AC50, test system Cytochrome P450 2D6 (Homo sapiens, UniProt P10635), entry COc1cccc(-c2ccc3ncnc(NCCNC(C)=O)c3c2)c1;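 note: CYP2D6 member of a cytochrome P450 panel assay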
Result: 39.8 µM (inconclusive)

---

TESTED_ON: Corticotropin-releasing factor receptor 2/Corticotropin-releasing factor-binding protein (Homo sapiens, UniProt P24387+Q13324)
Sequence (Q13324 whole entry): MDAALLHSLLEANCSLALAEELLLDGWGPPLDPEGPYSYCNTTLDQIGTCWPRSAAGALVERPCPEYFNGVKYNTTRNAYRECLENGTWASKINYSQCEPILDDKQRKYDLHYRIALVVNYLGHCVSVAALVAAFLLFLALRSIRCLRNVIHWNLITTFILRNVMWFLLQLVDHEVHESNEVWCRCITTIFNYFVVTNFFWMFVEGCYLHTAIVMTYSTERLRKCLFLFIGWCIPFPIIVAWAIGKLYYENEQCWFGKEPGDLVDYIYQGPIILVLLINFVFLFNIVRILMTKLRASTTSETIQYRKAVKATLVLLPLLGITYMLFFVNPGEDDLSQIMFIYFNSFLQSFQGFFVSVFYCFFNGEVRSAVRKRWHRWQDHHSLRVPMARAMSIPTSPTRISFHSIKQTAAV
Sequence (P24387 whole entry): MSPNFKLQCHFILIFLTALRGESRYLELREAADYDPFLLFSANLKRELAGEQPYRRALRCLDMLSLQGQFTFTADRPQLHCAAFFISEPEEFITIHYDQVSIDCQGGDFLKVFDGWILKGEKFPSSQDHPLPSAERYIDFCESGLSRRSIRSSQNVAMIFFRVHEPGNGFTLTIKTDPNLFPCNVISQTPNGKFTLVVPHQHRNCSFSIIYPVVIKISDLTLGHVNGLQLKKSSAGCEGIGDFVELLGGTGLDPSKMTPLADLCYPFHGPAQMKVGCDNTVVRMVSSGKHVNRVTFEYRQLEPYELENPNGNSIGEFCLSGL
ASSAY_DETAILS: activators of CRF receptor 2 with binding protein – uHTS hits, confirmation (AID 602473)
Type: functional
ASSAY_CONTEXT: read-out: EC50_Mean
Active and inactive are the calls of the source.
Answer with one of the outcomes given here: True for active, False for inactive

# example entries with known answers
Ask: Per the records of this test, what outcome belongs to O=C(c1ccc([N+](=O)[O-])cc1)N(Cc1ccccc1)Cc1ccccc1 ?
Result: False

Ask: Per the records of this test, what outcome belongs to Clc1ccc(-c2nnc3sc(-c4ccc(Br)o4)nn23)cc1 ?
Result: False

Ask: Per the records of this test, what outcome belongs to CS(=O)(=O)N(Cc1ccc(Cl)cc1)c1ccc(C(=O)NCCSc2ccccn2)cc1 ?
Result: False

Ask: Per the records of this test, what outcome belongs to O=C(c1ccco1)N1N=C(c2cccs2)CC1c1ccccc1O (stereo unspecified) ?
Result: False

Ask: Per the records of this test, what outcome belongs to COC(=O)C1CC(Cl)CN1c1ncc(C(F)(F)F)cc1Cl (stereo unspecified) ?
Result: False

***
Ask: Per the records of this test, what outcome belongs to COc1ccc2[nH]cc(C(=O)CN3CCCCC3)c2c1 ?
Result: False

Ask: Per the records of this test, what outcome belongs to CN1/C(=C\C=C(/C#N)C(=O)Nc2ccccc2F)C(C)(C)c2ccccc21 ?
Result: True

Ask: Per the records of this test, what outcome belongs to Cc1cc(O)n2nc(Nc3cccc(Cl)c3)nc2n1 ?
Result: False

Ask: Per the records of this test, what outcome belongs to COC(=O)Cn1cc(/C=C/c2cc[n+](C)cc2)c2ccccc21 ?
Result: True

Ask: Per the records of this test, what outcome belongs to Cc1ccccc1-n1ncc2c(SCC(=O)N3c4ccccc4CC3C)ncnc21 (stereo unspecified) ?
Result: False

Ask: Per the records of this test, what outcome belongs to Cc1ccc(NC(=O)CSC2=C(C#N)C(c3ccco3)CC(=O)N2)cc1 (stereo unspecified) ?
Result: False

---

TESTED_ON: Cytochrome P450 3A4 (Homo sapiens, UniProt P08684)
Sequence (P08684 whole entry): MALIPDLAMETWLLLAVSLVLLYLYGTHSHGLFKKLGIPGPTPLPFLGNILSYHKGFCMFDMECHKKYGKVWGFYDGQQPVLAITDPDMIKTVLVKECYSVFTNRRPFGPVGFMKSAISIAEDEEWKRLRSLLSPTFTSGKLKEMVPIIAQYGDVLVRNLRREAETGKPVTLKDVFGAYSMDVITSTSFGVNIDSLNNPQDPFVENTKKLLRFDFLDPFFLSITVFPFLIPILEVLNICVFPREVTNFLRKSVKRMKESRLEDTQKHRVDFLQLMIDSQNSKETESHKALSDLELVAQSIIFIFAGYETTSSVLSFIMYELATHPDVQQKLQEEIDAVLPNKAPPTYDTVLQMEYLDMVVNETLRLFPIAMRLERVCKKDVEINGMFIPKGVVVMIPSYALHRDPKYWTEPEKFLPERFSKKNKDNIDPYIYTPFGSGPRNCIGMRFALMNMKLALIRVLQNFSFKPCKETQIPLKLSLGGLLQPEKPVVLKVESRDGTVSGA
TEST_READOUT: AC50

Worked cases, answers included:
Ask: // AC50 lookup, key: NS(=O)(=O)c1ccc(/N=N\c2ncccc2O)cc1
Result: 3.98 µM (inconclusive)

Ask: // AC50 lookup, key: CCCCCn1c(CN2CCCCC2C)nc2c1c(=O)n(C)c(=O)n2C (stereo not given)
Result: 5.01 µM (inconclusive)

Ask: // AC50 lookup, key: COC(=O)c1nn(-c2ccccc2)c(-c2ccccc2)c1C(=O)c1ccccc1
Result: 14.1 µM (inconclusive)

Ask: // AC50 lookup, key: C[C@]12CC[C@H](O)C[C@@H]1CC[C@H]1[C@H]2CC[C@]2(C)[C@H](C(=O)CO)CC[C@@H]12
Result: 1 µM (inconclusive)

Ask: // AC50 lookup, key: COc1ccc(-c2nc3cnc(N(C)C)nc3n(C[C@H]3CCCO3)c2=O)cc1
Result: 6.31 µM (inconclusive)

***
Ask: // AC50 lookup, key: COc1ccc(OC)c(C(=O)CSc2nnc(Cc3cccs3)n2CCc2ccccc2)c1
Result: 39.8 µM (inconclusive)

---

ASSAY_DETAILS: Luminescence Cell-Based Dose Response HTS to Identify Inhibitors of 5'UTR Stem-Loop Driven Prion Protein mRNA Translation in H4 Neuroglioblastoma Cells. [Related pubchem assays: 1827 (Project Summary), 1813 (Primary HTS)]
Assay type: functional
Active and inactive are the calls of the source.
Reported EC50 is given for each of the following compounds.

Worked cases, answers included:
Ask: // EC50 lookup, key: COc1ccc(S(=O)(=O)N2CCCCCC2)cc1NC(=O)Cc1ccccc1F
Result: > 120 µM (not active)

Ask: // EC50 lookup, key: COc1cc(NC(=O)N2CCNC2=O)cc(C(=O)Nc2cccc(C(F)(F)F)c2)c1
Result: 9.79 µM (active)

Ask: // EC50 lookup, key: CN(C)CCCN(C(=O)c1ccc(S(=O)(=O)N2CCCc3ccccc32)cc1)c1nc2ccc(F)cc2s1
Result: > 120 µM (not active)

Ask: // EC50 lookup, key: Cc1cc(C)c2nc(SCC(=O)N3CC(=O)Nc4ccccc43)c(C#N)cc2c1
Result: 0.217 µM (active)

Consider now this further compound.
Ask: // EC50 lookup, key: O=C(Nc1cccc(O)c1)c1cc(-c2ccc3c(c2)OCO3)on1
Result: > 120 µM (not active)

---

TESTED_ON: RNA-binding protein pos-1 (Caenorhabditis elegans, UniProt G5EF15)
Sequence (G5EF15 whole entry, the tested form may be a part): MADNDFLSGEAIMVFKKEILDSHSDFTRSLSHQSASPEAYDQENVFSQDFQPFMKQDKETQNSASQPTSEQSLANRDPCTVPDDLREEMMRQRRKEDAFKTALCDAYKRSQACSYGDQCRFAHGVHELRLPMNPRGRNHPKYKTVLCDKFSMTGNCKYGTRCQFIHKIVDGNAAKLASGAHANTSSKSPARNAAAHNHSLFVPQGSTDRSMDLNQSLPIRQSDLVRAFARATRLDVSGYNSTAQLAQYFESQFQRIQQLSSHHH
ASSAY_DETAILS: disruptors of C. elegans POS-1 RNA interaction – biochemical, fluorescence polarization, dose response (AID 1964);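 note: purified POS-1 fused to maltose binding protein made in E. coli; potency of compounds blocking POS-1 binding to fluorescent RNA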
The source made the active and inactive calls.
TEST_READOUT: EC50

Worked cases, answers included:
Ask: // EC50 lookup, key: CCn1c(/C=C/c2c(C)[nH]c3ccccc23)nc2ccccc2c1=O
Result: > 300 µM (not active)

Ask: // EC50 lookup, key: CCOC(=O)c1cc(-c2ccc(/C=C3/C(=O)NC(=O)C(C#N)=C3C)o2)ccc1Cl
Result: 19.9 µM (active)

Ask: // EC50 lookup, key: Cc1cc(NS(=O)(=O)c2ccc(Nc3nc(-c4sc(N)nc4C)cs3)cc2)no1
Result: 9.62 µM (active)

Ask: // EC50 lookup, key: COC(=O)C1=C(C)N(Cc2ccccc2)C(=NCC(C)C)N[C@H]1c1ccccc1
Result: > 300 µM (not active)

Ask: // EC50 lookup, key: Cn1c(=O)c2nc(N/N=C(/C#N)C(N)=O)[nH]c2n(C)c1=O
Result: > 300 µM (not active)

Ask: // EC50 lookup, key: CC1=Nc2ccccc2/C1=C\c1nc(-c2ccc(F)cc2)oc1O
Result: > 300 µM (not active)

Ask: // EC50 lookup, key: CCN1C(=O)NC(=O)/C(=C\c2cn(CC(=O)O)c3ccccc23)C1=O
Result: > 300 µM (not active)

Ask: // EC50 lookup, key: Cc1ccccc1C1=N/C(=C/c2cccs2)C(=O)O1
Result: > 300 µM (not active)

***
Ask: // EC50 lookup, key: COc1cccc2c1NC(C(=O)O)C1CC=CC21 (configuration not stated)
Result: 19.5 µM (inconclusive)

Ask: // EC50 lookup, key: CCN(CC)CCN/C=C1\C(=O)NC(=O)N(CCc2ccccc2)C1=O
Result: > 300 µM (not active)

Ask: // EC50 lookup, key: Cc1oc(/N=C/c2ccc(O)cc2O)c(C#N)c1C
Result: > 300 µM (not active)

Ask: // EC50 lookup, key: Cc1n[nH]c(S/C(=C/c2ccc(-c3ccc(C(=O)O)cc3)o2)C(=O)O)n1
Result: 4.1 µM (active)

---

Test system: Streptococcus sp. 'group A'
ASSAY_DETAILS: Streptococcus pyogenes SK(-)GAS viability under kanamycin – luminescence, BacTiterGlo, confirmation, counter-screen for streptokinase expression inhibitor project, dose response (AID 1900)
Type: functional, organism-based
Activity calls are given as the source filed them.
Reported EC50 is given for each of the following compounds.

Ask: Request: EC50, test system Streptococcus sp. 'group A', entry CCc1ccc(S(=O)(=O)/N=C2\C=C(Nc3ccc(O)cc3)C(=O)c3ccccc32)cc1
Result: 1860 nM (active)

Ask: Request: EC50, test system Streptococcus sp. 'group A', entry CCN1/C(=C/c2ccc3cc(C)ccc3[n+]2CC)Sc2ccc3sccc3c21
Result: 3290 nM (active)

Ask: Request: EC50, test system Streptococcus sp. 'group A', entry COc1cccc(-c2nnc(Nc3nc4c(F)cccc4s3)o2)c1
Result: 767 nM (active)

Ask: Request: EC50, test system Streptococcus sp. 'group A', entry O=C(Nc1nnc(-c2ccc3c(c2)CCCC3)o1)c1c(F)cccc1F
Result: 1770 nM (active)

Ask: Request: EC50, test system Streptococcus sp. 'group A', entry CCCc1cc2c(-c3ccccc3)cc(=O)oc2cc1OCc1ccc(C(=O)O)o1
Result: 8370 nM (active)
